Listing of recorded Inhibition by entry.
# Test system: Plasmodium falciparum
# Assay name: GSK_TCMDC: Inhibition of Plasmodium falciparum Dd2 in whole red blood cells, using parasite LDH activity as an index of growth. Test compounds present at 2uM
# Assay type: functional

>  <Compound>
Cc1[nH]c(C)c(-c2ccc(-c3ccc(C(F)F)cc3)nc2)c(=O)c1Cl

>  <Target system>
Plasmodium falciparum

>  <Display unit>
%

>  <Inhibition>
96

$$$$
>  <Compound>
Cc1ccc2c(-c3ccc([N+](=O)[O-])o3)cc(C)nc2c1

>  <Target system>
Plasmodium falciparum

>  <Display unit>
%

>  <Inhibition>
47

$$$$
>  <Compound>
Nc1nc(N)c2c(ccc3nn(C4CCCC4)cc32)n1

>  <Target system>
Plasmodium falciparum

>  <Display unit>
%

>  <Inhibition>
3

$$$$
>  <Compound>
c1ccc(-c2csc(Nc3nc4cc5c(cc4s3)OCO5)n2)nc1

>  <Target system>
Plasmodium falciparum

>  <Display unit>
%

>  <Inhibition>
99

$$$$
>  <Compound>
Cc1ccc([N+](=O)[O-])cc1NC(=O)N(CC(O)c1ccccc1)C1CCCCC1 (centres undefined)

>  <Target system>
Plasmodium falciparum

>  <Display unit>
%

>  <Inhibition>
98

$$$$
>  <Compound>
CN1CCCC(COc2cc3c(cc2Br)CCN3C(=O)Nc2ccc(-c3ccncc3)c(Cl)c2)C1 (centres undefined)

>  <Target system>
Plasmodium falciparum

>  <Display unit>
%

>  <Inhibition>
96

$$$$
>  <Compound>
COc1ccc(-c2ccc(NC(=O)c3cccc(C#N)c3)cc2)cc1CN1CCCC(C(N)=O)C1.O=C(O)C(F)(F)F (centres undefined)

>  <Target system>
Plasmodium falciparum

>  <Display unit>
%

>  <Inhibition>
44

$$$$
>  <Compound>
CNc1ccc(CNCc2ccc(-c3ccc(-c4nc5cc(C(F)(F)F)ccc5[nH]4)cc3)cc2)cc1.O=C(O)C(F)(F)F

>  <Target system>
Plasmodium falciparum

>  <Display unit>
%

>  <Inhibition>
98

$$$$
>  <Compound>
COc1ccc2cc(CNCCCCCCNCc3ccc4cc(OC)ccc4c3)ccc2c1.CS(=O)(=O)O

>  <Target system>
Plasmodium falciparum

>  <Display unit>
%

>  <Inhibition>
92

$$$$

---

# Test system: Plasmodium falciparum
# Assay name: GSK_TCMDC: Inhibition of Plasmodium falciparum 3D7 in whole red blood cells, using parasite LDH activity as an index of growth. Test compounds present at 2uM
# Format: functional

>  <Structure string>
CN(C)Cc1cccc(-c2ccc(NC(=O)c3ccc4c(=O)n(C5CCCCC5)cnc4c3)cc2)c1

>  <Inhibition / %>
96

$$$$
>  <Structure string>
COc1ccc(Nc2ncc3c(-c4ccc(NC(=O)c5cccc(C(F)(F)F)c5)cc4)c[nH]c3n2)cc1OC

>  <Inhibition / %>
89

$$$$
>  <Structure string>
Cc1ccc(C2CCN(CCCCNC(=O)c3ccc(NC(=O)c4ccc(Cl)cc4)cc3)CC2)c(C)c1.Cl

>  <Inhibition / %>
96

$$$$
>  <Structure string>
COc1ccc(NC(=O)c2cc(-c3ccc(NC(C)=O)cc3)cnc2N)cc1

>  <Inhibition / %>
98

$$$$
>  <Structure string>
O=C(Nc1ccsc1)Nc1cccc(-c2cccc(-c3nc4ccccc4[nH]3)c2)c1

>  <Inhibition / %>
100

$$$$
>  <Structure string>
CC(C)CC(=O)NC1CCN(Cc2c(-c3cccs3)nc3ccccc3c2C(=O)N[C@@H](C)C2CCCCC2)CC1

>  <Inhibition / %>
96

$$$$
>  <Structure string>
Cc1cc(N[C@@H](Cc2ccccc2)C(=O)NCCc2ccccc2)nc(NCCc2cccs2)n1.O=C(O)C(F)(F)F

>  <Inhibition / %>
99

$$$$
